Record form. Attribute: kon. Fill in for each entry.
# tested-system: T1, Recombinant human CD4 (R&D Systems, Cat. 10327-CD) (human, UniProt P01730 26-390, limits assumed)
# T1 construct: Bought soluble recombinant protein used as analyte at 100 nM; also called huCD4
# measurement-protocol: BLI (Octet Red384), non-clonal supernatant on AMC sensor, 100 nM human CD4, 1:1 local fit;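 further: hybridoma antibodies captured from supernatant, single CD4 concentration as analyte, association and dissociation phases fitted together, giving single-point kinetic estimates per supernatant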
Give bare numbers, in M⁻¹ s⁻¹.

INSERT INTO measurements (binder, units_symbol, value_observed) VALUES
  ('75110_08M20A (antibody, V domains shown, Non-clonal AlivaMab Mouse Kappa hybridoma supernatant, captured by anti-mouse IgG Fc (human V regions, mouse Fc)) VH: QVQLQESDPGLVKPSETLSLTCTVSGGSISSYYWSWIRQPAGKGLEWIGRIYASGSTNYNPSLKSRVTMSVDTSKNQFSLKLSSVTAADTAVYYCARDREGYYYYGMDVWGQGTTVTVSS VL: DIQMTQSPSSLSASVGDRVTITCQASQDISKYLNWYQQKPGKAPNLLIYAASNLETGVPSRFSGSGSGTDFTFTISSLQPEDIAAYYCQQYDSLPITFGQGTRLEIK', 'M⁻¹ s⁻¹', 150000);

Now for the binder whose kon we want.
Record summary for 75110_08A13A (antibody, V domains shown, Non-clonal AlivaMab Mouse Kappa hybridoma supernatant, captured by anti-mouse IgG Fc (human V regions, mouse Fc)) VH: EVQLVESGGGLVQPGGSLRLSCAASGFIFSSYWMSWVRQAPGKGLEWVANIKQDGSEKYYMDSVKGRFTISRDNAKNSLYLQMNSLRAEDTAVYYCARDNSYYYYGMDVWGQGTTVTVSS VL: AIQMTQSPSSLSASVGDRVTITCRASQGIRDDLGWYQQKPGKAPKLLIFAASSLQSGVPSSFSGSGSGTDFTLTISSLQPEDFATYYCLHHYNYPYTFGQGTKLEIK : reported kon = 230000
